# Tested on: MONO-MAC-6
# Experimental Details: Cytostatic activity against human MONO-MAC-6 cells assessed as cell viability after 16 hrs by MTT assay
# Type: cell-based
# Measurement Conditions: MONO-MAC-6, 16 h
Measure Name: pIC50
Schema: pIC50 number; meaning minus log10 of the concentration expressed in molar units.

Missing value: pIC50, MONO-MAC-6, entry O=C(Nc1ccc(C(F)(F)F)cc1)c1cc(Br)ccc1O . Fill in?
5.12

Missing value: pIC50, MONO-MAC-6, entry CCCNC(=O)Oc1ccc(Cl)cc1C(=O)Nc1ccc(Cl)c(Cl)c1 . Fill in?
5.15

Missing value: pIC50, MONO-MAC-6, entry O=C(c1ccccc1)c1ccc(NC(=O)c2cc(Cl)ccc2O)cc1 . Fill in?
4.32

---

Reported log10(MIC) values for the following compounds.
# Tested on: Mycobacterium tuberculosis
# Experimental Details: Antimycobacterial activity against Mycobacterium tuberculosis H37Rv ATCC 27294 after 28 days by serial dilution method
# Format: functional
# Measurement Conditions: Mycobacterium tuberculosis, H37Rv ATCC 27294, 672 h
// stored as log10 of MIC expressed in µM

Consider the worked cases shown below.
O=C(NCCCCl)Oc1ccc(Br)cc1C(=O)Nc1ccc(C(F)(F)F)cc1 : 0.00
O=C(NCCCl)Oc1ccc(Br)cc1C(=O)Nc1ccc(C(=O)c2ccccc2)cc1 : 0.90
CCCNC(=O)Oc1ccc(Cl)cc1C(=O)Nc1ccc(C(=O)c2ccccc2)cc1 : 0.96
O=C(Nc1ccc(C(F)(F)F)cc1)c1cc(Cl)ccc1O : 0.20
O=C(NCCCCl)Oc1ccc(Cl)cc1C(=O)Nc1ccc(Cl)c(Cl)c1 : 0.36
O=C(NCCCCl)Oc1ccc(Cl)cc1C(=O)Nc1ccc(C(F)(F)F)cc1 : -0.30
O=C(NCCCl)Oc1ccc(Cl)cc1C(=O)Nc1ccc(Cl)c(Cl)c1 : 0.08
O=C(Nc1ccc(Cl)c(Cl)c1)c1cc(Cl)ccc1O : 0.20

I would be grateful if you could share the reported log10(MIC) for O=C(NCCCCl)Oc1ccc(Br)cc1C(=O)Nc1ccc(C(=O)c2ccccc2)cc1 .
0.94

I would be grateful if you could share the reported log10(MIC) for O=C(NCCCl)Oc1ccc(Br)cc1C(=O)Nc1ccc(Cl)c(Cl)c1 .
-0.70

---

# Experimental Details: Selectivity index, ratio of IC50 for human MONO-MAC-6 cells to MIC for Mycobacterium abscessus ATCC 19977
# Format: toxicity
# Measurement Conditions: read-out: Selectivity Index
One threshold, 2, splits the recorded selectivity ratio values: lower ones are TRUE, equal or higher ones are FALSE.

Solved cases below.
O=C(Nc1ccc(Cl)c(Cl)c1)c1cc(Cl)ccc1O : TRUE
O=C(NCCCl)Oc1ccc(Br)cc1C(=O)Nc1ccc(C(=O)c2ccccc2)cc1 : TRUE

For this compound, is selectivity ratio lower than 2? CCCNC(=O)Oc1ccc(Cl)cc1C(=O)Nc1ccc(Cl)c(Cl)c1
FALSE

For this compound, is selectivity ratio lower than 2? O=C(Oc1ccc(Cl)cc1C(=O)Nc1ccc(Cl)c(Cl)c1)c1cnc(Cl)cn1
FALSE

For this compound, is selectivity ratio lower than 2? O=C(NCCCl)Oc1ccc(Br)cc1C(=O)Nc1ccc(C(F)(F)F)cc1
FALSE

For this compound, is selectivity ratio lower than 2? O=C(NCCCCl)Oc1ccc(Br)cc1C(=O)Nc1ccc(Cl)c(Cl)c1
FALSE

For this compound, is selectivity ratio lower than 2? O=C(Oc1ccc(Br)cc1C(=O)Nc1ccc(Cl)c(Cl)c1)c1cnc(Cl)cn1
FALSE

For this compound, is selectivity ratio lower than 2? O=C(NCCCl)Oc1ccc(Cl)cc1C(=O)Nc1ccc(C(=O)c2ccccc2)cc1
TRUE

For this compound, is selectivity ratio lower than 2? O=C(c1ccccc1)c1ccc(NC(=O)c2cc(Br)ccc2O)cc1
TRUE

For this compound, is selectivity ratio lower than 2? O=C(NCCCCl)Oc1ccc(Cl)cc1C(=O)Nc1ccc(Cl)c(Cl)c1
FALSE

For this compound, is selectivity ratio lower than 2? O=C(NCCCCl)Oc1ccc(Br)cc1C(=O)Nc1ccc(C(=O)c2ccccc2)cc1
TRUE

For this compound, is selectivity ratio lower than 2? O=C(NCCCCl)Oc1ccc(Cl)cc1C(=O)Nc1ccc(C(F)(F)F)cc1
FALSE
